protocol-details: Cytotoxicity against C57BL/6 mouse BV-2 cells assessed as survival rate at 20 uM incubated for 24 hrs by MTT assay relative to control
Type: toxicity, cell-based
recorded-conditions: read-out: INH
Parameter viability at 24 h, 20 µM: see the listing below.
Write the value in % as a bare number.

Worked set:
{"smiles-text": "CCc1ccc(C(=O)Nc2ccccc2C(=O)OC[C@@]23CC[C@H](OC)[C@]45C([C@@H](C[C@H]24)[C@@]2(O)C[C@H](OC)[C@H]4C[C@@H]5[C@]2(O)[C@H]4OC)N(CC)C3)cc1", "measurement-units": "%", "viability at 24 h, 20 µM": 102}
{"smiles-text": "CCN1C[C@]2(COC(=O)c3ccccc3NC(=O)c3ccc(Cl)s3)CC[C@H](OC)[C@]34C1[C@@H](C[C@H]23)[C@@]1(O)C[C@H](OC)[C@H]2C[C@@H]4[C@]1(O)[C@H]2O", "measurement-units": "%", "viability at 24 h, 20 µM": 104}
{"smiles-text": "CCN1C[C@]2(COC)CC[C@H](OC)[C@]34C1[C@@H](C[C@H]23)[C@@]1(O)C[C@H](OC)[C@H]2C[C@@H]4[C@]1(O)[C@H]2OC(=O)c1ccccc1NS(=O)(=O)c1ccc(Br)s1", "measurement-units": "%", "viability at 24 h, 20 µM": 110}

Problem: What does the record list as viability at 24 h, 20 µM for CCN1C[C@]2(COC)CC[C@H](OC)[C@]34C1[C@@H](C[C@H]23)[C@@]1(O)C[C@H](OC)[C@H]2C[C@@H]4[C@]1(O)[C@H]2OC(=O)c1ccccc1NS(=O)(=O)c1cccc(F)c1 ?
Result: 100

====

protocol-details: Cytotoxicity against C57BL/6 mouse BV-2 cells assessed as survival rate at 30 uM incubated for 24 hrs by MTT assay relative to control
Type: toxicity, cell-based
recorded-conditions: read-out: Survival
Overview of recorded viability at 24 h, 30 µM for various compounds

Solved entries (count: 5):
{"smiles-text": "CCN1C[C@]2(OC(=O)c3ccccc3NC(=O)S(=O)(=O)c3cccnc3Cl)CC[C@H](OC)[C@]34C1[C@@H](C[C@H]23)[C@@]1(O)C[C@H](OC)[C@H]2C[C@@H]4[C@]1(O)[C@H]2OC", "test-value": "106%"}
{"smiles-text": "COC(=O)c1ccccc1NC(=O)c1ccc(Cl)s1", "test-value": "93.5%"}
{"smiles-text": "CCN1C[C@]2(OC(=O)c3ccccc3NC(=O)S(=O)(=O)c3ccc(OC)c(OC)c3)CC[C@H](OC)[C@]34C1[C@@H](C[C@H]23)[C@@]1(O)C[C@H](OC)[C@H]2C[C@@H]4[C@]1(O)[C@H]2OC", "test-value": "105%"}
{"smiles-text": "CCc1ccc(C(=O)Nc2ccccc2C(=O)O)cc1", "test-value": "101%"}
{"smiles-text": "CCN1C[C@]2(OC(=O)c3ccccc3NC(=O)S(=O)(=O)c3ccc(Cl)s3)CC[C@H](OC)[C@]34C1[C@@H](C[C@H]23)[C@@]1(O)C[C@H](OC)[C@H]2C[C@@H]4[C@]1(O)[C@H]2OC", "test-value": "100%"}

Problem: viability at 24 h, 30 µM for CCN1C[C@]2(OC(=O)c3ccccc3NC(=O)c3ccccc3F)CC[C@H](OC)[C@]34C1[C@@H](C[C@H]23)[C@@]1(O)C[C@H](OC)[C@H]2C[C@@H]4[C@]1(O)[C@H]2OC ?
Result: 105%

====

protocol-details: Cytotoxicity against C57BL/6 mouse BV-2 cells assessed as survival rate at 30 uM incubated for 24 hrs by MTT assay relative to control
Format: toxicity, cell-based
recorded-conditions: read-out: Survival
endpoint-name: viability at 24 h, 30 µM (%)
The reply should be a number in %, with the unit left off.

// solved cases for viability at 24 h, 30 µM follow
{"smiles-text": "CCN1C[C@]2(OC(=O)c3ccccc3NC(=O)S(=O)(=O)c3ccc(OC)c(F)c3)CC[C@H](OC)[C@]34C1[C@@H](C[C@H]23)[C@@]1(O)C[C@H](OC)[C@H]2C[C@@H]4[C@]1(O)[C@H]2OC", "viability at 24 h, 30 µM (%)": 103}
{"smiles-text": "CCN1C[C@]2(OC(=O)c3ccccc3NC(=O)S(=O)(=O)c3ccc(C(C)=O)cc3)CC[C@H](OC)[C@]34C1[C@@H](C[C@H]23)[C@@]1(O)C[C@H](OC)[C@H]2C[C@@H]4[C@]1(O)[C@H]2OC", "viability at 24 h, 30 µM (%)": 92.6}
{"smiles-text": "CCN1C[C@]2(OC(=O)c3ccccc3NC(=O)c3ccc(C)cc3C)CC[C@H](OC)[C@]34C1[C@@H](C[C@H]23)[C@@]1(O)C[C@H](OC)[C@H]2C[C@@H]4[C@]1(O)[C@H]2OC", "viability at 24 h, 30 µM (%)": 104}
{"smiles-text": "CCN1C[C@]2(OC(=O)c3ccccc3NC(=O)S(=O)(=O)c3cc(F)ccc3F)CC[C@H](OC)[C@]34C1[C@@H](C[C@H]23)[C@@]1(O)C[C@H](OC)[C@H]2C[C@@H]4[C@]1(O)[C@H]2OC", "viability at 24 h, 30 µM (%)": 105}

Problem: Quick one: viability at 24 h, 30 µM for O=C(Nc1ccccc1C(=O)O)c1ccc(Cl)s1 ?
Result: 98.7

Problem: So what's the measured viability at 24 h, 30 µM for this one? CCN1C[C@]2(OC(=O)c3ccccc3NC(=O)CCc3ccccc3)CC[C@H](OC)[C@]34C1[C@@H](C[C@H]23)[C@@]1(O)C[C@H](OC)[C@H]2C[C@@H]4[C@]1(O)[C@H]2OC
Result: 108

Problem: Name the reported viability at 24 h, 30 µM value associated with the compound CCN1C[C@]2(OC(=O)c3ccccc3NC(=O)S(=O)(=O)c3ccc(C(=O)OC)cc3)CC[C@H](OC)[C@]34C1[C@@H](C[C@H]23)[C@@]1(O)C[C@H](OC)[C@H]2C[C@@H]4[C@]1(O)[C@H]2OC
Result: 104

Problem: Name the recorded viability at 24 h, 30 µM for CCN1C[C@]2(OC(=O)c3ccccc3NC(=O)C3CCOCC3)CC[C@H](OC)[C@]34C1[C@@H](C[C@H]23)[C@@]1(O)C[C@H](OC)[C@H]2C[C@@H]4[C@]1(O)[C@H]2OC .
Result: 103

Problem: I am curious: what viability at 24 h, 30 µM value has been reported for CCN1C[C@]2(OC(=O)c3ccccc3NC(=O)S(=O)(=O)/C=C/c3ccccc3)CC[C@H](OC)[C@]34C1[C@@H](C[C@H]23)[C@@]1(O)C[C@H](OC)[C@H]2C[C@@H]4[C@]1(O)[C@H]2OC ?
Result: 108

Problem: Looking for the measured viability at 24 h, 30 µM of O=C(O)c1ccccc1NS(=O)(=O)c1cccc(F)c1 , can you help?
Result: 100

====

Each record here notes measured viability at 24 h, 30 µM.
protocol-details: Cytotoxicity against C57BL/6 mouse BV-2 cells assessed as survival rate at 30 uM incubated for 24 hrs by MTT assay relative to control
Assay type: toxicity, cell-based
recorded-conditions: read-out: Survival
Number only, in %; omit the unit.

Recorded results for 4 compounds are shown here.
{"smiles-text": "CCN1C[C@]2(COC(=O)c3ccccc3NS(=O)(=O)c3ccc(Br)s3)CC[C@H](OC)[C@]34C1[C@@H](C[C@H]23)[C@@]1(O)C[C@H](OC)[C@H]2C[C@@H]4[C@]1(O)[C@H]2OC", "endpoint-name": "viability at 24 h, 30 µM", "test-value": 97.8}
{"smiles-text": "CCN1C[C@]2(OC(=O)c3ccccc3NC(=O)S(=O)(=O)CC)CC[C@H](OC)[C@]34C1[C@@H](C[C@H]23)[C@@]1(O)C[C@H](OC)[C@H]2C[C@@H]4[C@]1(O)[C@H]2OC", "endpoint-name": "viability at 24 h, 30 µM", "test-value": 106}
{"smiles-text": "CCN1C[C@]2(OC(=O)c3ccccc3NC(=O)c3cccc(C)c3)CC[C@H](OC)[C@]34C1[C@@H](C[C@H]23)[C@@]1(O)C[C@H](OC)[C@H]2C[C@@H]4[C@]1(O)[C@H]2OC", "endpoint-name": "viability at 24 h, 30 µM", "test-value": 112}
{"smiles-text": "CCN1C[C@]2(OC(=O)c3ccccc3NC(=O)S(=O)(=O)c3ccc(C4CCCCC4)cc3)CC[C@H](OC)[C@]34C1[C@@H](C[C@H]23)[C@@]1(O)C[C@H](OC)[C@H]2C[C@@H]4[C@]1(O)[C@H]2OC", "endpoint-name": "viability at 24 h, 30 µM", "test-value": 93.7}

Moving on to the next compound.
Problem: I have this compound here, CCN1C[C@]2(OC(=O)c3ccccc3NC(=O)c3cccc(F)c3)CC[C@H](OC)[C@]34C1[C@@H](C[C@H]23)[C@@]1(O)C[C@H](OC)[C@H]2C[C@@H]4[C@]1(O)[C@H]2OC , and I need its recorded viability at 24 h, 30 µM.
Result: 107
